Known NF-kB SEAP reporter activity of a selection of compounds
tested on: RAW-Dual; assay: NF-kB SEAP reporter activity, fold change vs agonist alone; cytotoxicity flag (confluency mask): not cytotoxic; higher = enhanced NF-kB activity; details: agonist: ODN 1826 (TLR9) 0.5 ug/mL
In all, about 2,900 compounds were measured (“NF-kB SEAP reporter activity, fold change vs agonist alone”: median about 0.99, highest 2% from about 2.6 on). What follows is part of a selection rich in the highest values, with near analogues and random picks from the rest.
Give only the figure.

input: Recorded NF-kB SEAP reporter activity for C=C1CCC2C(C)(COC(=O)CCC(=O)O)C(OC(=O)CCC(=O)O)CCC2(C)C1C=CC1=CCOC1=O (stereo unspecified) (library stock concentration (final ~1000-fold dilution): 10 mM) , please?
output: 0.979

input: Recorded NF-kB SEAP reporter activity for Cc1[nH]c(C=C2C(=O)Nc3ccc(F)cc32)c(C)c1C(=O)NCCN1CCCC1 (library stock concentration (final ~1000-fold dilution): 2 mM) , please?
output: 0.183

input: Recorded NF-kB SEAP reporter activity for O=C(O)/C(S)=C/c1c[nH]c2ccc(F)cc12 (library stock concentration (final ~1000-fold dilution): 10 mM) , please?
output: 0.864

input: Recorded NF-kB SEAP reporter activity for CC(=O)Oc1cc2c(cc1Cl)C(c1ccccc1C(=O)O)c1cc(Cl)c(OC(C)=O)cc1O2 (library stock concentration (final ~1000-fold dilution): 10 mM) , please?
output: 1.24

input: Recorded NF-kB SEAP reporter activity for CC1(Cn2ccnn2)C(C(=O)O)N2C(=O)CC2S1(=O)=O (stereo unspecified) (library stock concentration (final ~1000-fold dilution): 10 mM) , please?
output: 1.03

input: Recorded NF-kB SEAP reporter activity for CC(C)(C)NC(=O)C1CCC2C3CCC4NC(=O)C=CC4(C)C3CCC12C (stereo unspecified) (library stock concentration (final ~1000-fold dilution): 10 mM) , please?
output: 0.946

input: Recorded NF-kB SEAP reporter activity for CC1c2cccc(O)c2C(=O)C2=C(O)C3(O)C(=O)C(C(N)=O)=C(O)C(N(C)C)C3C(O)C21 (stereo unspecified) (library stock concentration (final ~1000-fold dilution): 10 mM) , please?
output: 0.966

input: Recorded NF-kB SEAP reporter activity for CS(=O)(=O)N1CCN(Cc2cc3nc(-c4cccc5[nH]ncc45)nc(N4CCOCC4)c3s2)CC1 (library stock concentration (final ~1000-fold dilution): 10 mM) , please?
output: 0.247

input: Recorded NF-kB SEAP reporter activity for O=C(/C=C/c1ccc(O)c(O)c1/C=C/c1ccc(O)c(O)c1)OC(Cc1ccc(O)c(O)c1)C(=O)O (stereo unspecified) (library stock concentration (final ~1000-fold dilution): 10 mM) , please?
output: 0.836

---

test system: RAW-Dual; experiment: NF-kB SEAP reporter activity, fold change vs agonist alone; cytotoxicity flag (confluency mask): not cytotoxic; higher = enhanced NF-kB activity; conditions: agonist: ODN 1826 (TLR9) 0.5 ug/mL
Whole data set: some 2,900 compounds, median “NF-kB SEAP reporter activity, fold change vs agonist alone” near 0.99, cut for the highest 2% near 2.6. The full list was thinned out, with the highest values kept by preference.
REPORTED_ENDPOINT: NF-kB SEAP reporter activity
Give only the figure.

The cases that follow already have their NF-kB SEAP reporter activity on record.
MOLECULE	TARGET_ENTITY	NF-kB SEAP reporter activity
CC(C)CCNC(=O)C(CC(C)C)NC(=O)C1OC1C(=O)O (stereo unspecified) (library stock concentration (final ~1000-fold dilution): 10 mM)	RAW-Dual	1.02
O=C1OC(=O)C2C3CCC(O3)C12 (stereo unspecified) (library stock concentration (final ~1000-fold dilution): 10 mM)	RAW-Dual	2
O=C(Nc1ccccc1C(=O)O)c1cc(S(=O)(=O)c2ccccc2)ccc1Cl (library stock concentration (final ~1000-fold dilution): 10 mM)	RAW-Dual	0.999
CC(C)NCC(O)COc1ccc(COCCOC(C)C)cc1.O=C(O)/C=C/C(=O)O (stereo unspecified) (library stock concentration (final ~1000-fold dilution): 10 mM)	RAW-Dual	0.873
Cl.Clc1cccc(-c2nnnn2Cc2cccnc2)c1Cl (library stock concentration (final ~1000-fold dilution): 10 mM)	RAW-Dual	0.95
O=C(NCC(O)CN1CCc2ccccc2C1)c1ccnc(NC2CCC2)c1 (stereo unspecified) (library stock concentration (final ~1000-fold dilution): 10 mM)	RAW-Dual	0.581

input: Recorded NF-kB SEAP reporter activity for CN(C)c1ccc(O)c2c1CC1CC3C(N(C)C)C(=O)C(C(N)=O)=C(O)C3(O)C(=O)C1=C2O (stereo unspecified) (library stock concentration (final ~1000-fold dilution): 5 mM) , please?
output: 1.15

input: Recorded NF-kB SEAP reporter activity for Oc1ccc(-c2nc(-c3ccc(F)cc3)c(-c3ccncc3)[nH]2)cc1 (library stock concentration (final ~1000-fold dilution): 10 mM) , please?
output: 0.851

input: Recorded NF-kB SEAP reporter activity for CC(NC(=O)C(NC(=O)OCc1ccccc1)C(C)C)C(=O)NC(CC(=O)O)C(=O)CF (stereo unspecified) (library stock concentration (final ~1000-fold dilution): 10 mM) , please?
output: 0.939

input: Recorded NF-kB SEAP reporter activity for CC(C)Nc1cc(-c2c[nH]c(C(=O)NC(CO)c3cccc(Cl)c3)c2)c(Cl)cn1 (stereo unspecified) (library stock concentration (final ~1000-fold dilution): 10 mM) , please?
output: 0.189

input: Recorded NF-kB SEAP reporter activity for O=C(Oc1coc(CSc2ncccn2)cc1=O)c1ccc([N+](=O)[O-])cc1 (library stock concentration (final ~1000-fold dilution): 10 mM) , please?
output: 0.944
